Every entry's value here was drawn from patent US10919943B2.

# Test system: HAB1
# experiment.summary: Yeast two hybrid of pBD-PYR1 site saturation mutants with pACT-HAB1 on 10 μM ABA, β-galactosidase staining
# Type: cell-based, Arabidopsis
# Set-up: key: x: Mutations in PYR1 that disrupt ABA-induced binding to PYR1 to HAB1
# conditions: S. cerevisiae Y190, 10 μM ABA; dead = lack of visible staining in comparison to wild type control
outcome.measure: Mutations in PYR1 that disrupt ABA-induced binding to PYR1 to HAB1

P148Q: PYR1 mutant (protein, UniProt O49686 1-191, looked up, variant P148Q) Abscisic acid receptor PYR1: MPSELTPEERSELKNSIAEFHTYQLDPGSCSSLHAQRIHAPPELVWSIVRRFDKPQTYKHFIKSCSVEQNFEMRVGCTRDVIVISGLPANTSTERLDILDDERRVTGFSIIGGEHRLTNYKSVTTVHRFEKENRIWTVVLESYVVDMQEGNSEDDTRMFADTVVKLNLQKLATVAEAMARNSGDGSGSQVT | x
G86E: PYR1 mutant (protein, UniProt O49686 1-191, looked up, variant G86E) Abscisic acid receptor PYR1: MPSELTPEERSELKNSIAEFHTYQLDPGSCSSLHAQRIHAPPELVWSIVRRFDKPQTYKHFIKSCSVEQNFEMRVGCTRDVIVISELPANTSTERLDILDDERRVTGFSIIGGEHRLTNYKSVTTVHRFEKENRIWTVVLESYVVDMPEGNSEDDTRMFADTVVKLNLQKLATVAEAMARNSGDGSGSQVT | x
S85P: PYR1 mutant (protein, listed as Arabidopsis thaliana) MPSELTPEERSELKNSIAEFHTYQLDPGSCSSLHAQRIHAPPELVWSIVRRFDKPQTYKHFIKSCSVEQNFEMRVGCTRDVIVIPGLPANTSTERLDILDDERRVTGFSIIGGEHRLTNYKSVTTVHRFEKENRIWTVVLESYVVDMPEGNSEDDTRMFADTVVKLNLQKLATVAEAMARNSGDGSGSQVT | x
